Reference source: paper PMC4984800

# PROTOCOL_SUMMARY: First-in-human trial: pharmacokinetics in plasma and urine
# Assay type: in vivo
# CONDITIONS_USED: human, plasma, oral, 160 mg, Schedule 1, 160 mg, Day 1, N=5; median (range); read-out: T1/2 (converted)
VALUE_KIND: half-life (h)
Answer in h, number only, no unit symbol.

Quick check: half-life of COc1cccc2cc(-c3nc([C@H]4CC[C@H](C(=O)O)CC4)n4ncnc(N)c34)[nH]c12 [OSI-027] ?
10.3

* * *

# PROTOCOL_SUMMARY: First-in-human trial: pharmacokinetics in plasma and urine
# Type: in vivo
# CONDITIONS_USED: human, plasma, oral, 35 mg, Schedule 3, 35 mg, Day 1, N=4; median (range)
VALUE_KIND: Cmax (ng/mL)
Expressed in ng/mL, but write only the number.

Requested field: Cmax. Item: COc1cccc2cc(-c3nc([C@H]4CC[C@H](C(=O)O)CC4)n4ncnc(N)c34)[nH]c12
1590

* * *

# PROTOCOL_SUMMARY: First-in-human trial: pharmacokinetics in plasma and urine
# Format: in vivo
# CONDITIONS_USED: human, plasma, oral, 40 mg, Schedule 2, 40 mg, N=3; median (range)
VALUE_KIND: AUC(0-inf)
Please provide the amount together with its unit, number first.

Which AUC(0-inf) value belongs to COc1cccc2cc(-c3nc([C@H]4CC[C@H](C(=O)O)CC4)n4ncnc(N)c34)[nH]c12 ?
28600 ng·h/mL

* * *

# PROTOCOL_SUMMARY: First-in-human trial: pharmacokinetics in plasma and urine
# Format: in vivo
# CONDITIONS_USED: human, plasma, oral, 30 mg, Schedule 1, 30 mg, Day 1, N=3; median (range)
VALUE_KIND: Cmax (µg/mL)
Field format: number, assumed µg/mL, no unit text.

For the molecule COc1cccc2cc(-c3nc([C@H]4CC[C@H](C(=O)O)CC4)n4ncnc(N)c34)[nH]c12 , what Cmax is on record?
3.62
